target: Human GPR40 (Homo sapiens (Human), UniProt O14842); experiment: Inositol Phosphate Turnover (IP1) Assay 1, HEK cells stably expressing human GPR40, 3H-inositol SPA; type: cell-based; conditions: HEK cells stably expressing human GPR40, 96-well
Sequence (O14842 whole entry): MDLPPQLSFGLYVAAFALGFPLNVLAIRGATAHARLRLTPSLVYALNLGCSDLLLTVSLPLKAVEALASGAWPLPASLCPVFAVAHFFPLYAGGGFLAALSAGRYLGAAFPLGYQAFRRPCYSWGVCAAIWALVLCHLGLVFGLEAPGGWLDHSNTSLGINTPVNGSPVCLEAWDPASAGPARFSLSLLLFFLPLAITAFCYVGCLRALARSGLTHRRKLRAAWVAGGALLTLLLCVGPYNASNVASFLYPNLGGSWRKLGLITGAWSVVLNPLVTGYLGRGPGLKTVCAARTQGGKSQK
observation type: EC50 (nM)

1. Cc1c(OC2CC(COc3cccc([C@H](C4CC4)[C@H](C)C(=O)O)c3)C2)nn(C)c1C(F)(F)F (stereo partly shown) [Example 100]	560
2. O=C(O)C[C@H](c1cccc(OC2CC3CN(Cc4cc(C(F)(F)F)ccc4C(F)(F)F)CC3C2)c1)C1CC1 (stereo partly shown) [Example 8]	866
3. C[C@H](C(=O)O)[C@H](c1cccc(OCC2CC(Oc3ccnc4c3OCCO4)C2)c1)C1CC1 (stereo partly shown) [Example 111]	3100
4. CC(c1cc(C(F)(F)F)ccc1C(F)(F)F)N1CC(COc2cccc([C@H](C3CC3)[C@H](C)C(=O)O)c2)C1 (stereo partly shown) [Example 27]	7.6
5. C[C@H](C(=O)O)[C@H](c1cccc(OCC2CC(Oc3cccc(O)c3)C2)c1)C1CC1 (single isomer, unassigned) [Example 123]	324
6. COc1cncc([C@H]2C[C@@H]2COc2cccc([C@H](C3CC3)[C@H](C)C(=O)O)c2)c1 [Example 150]	4470
7. CC(Oc1cccc([C@H](C2CC2)[C@H](C)C(=O)O)c1)C1CN(Cc2cc(C(F)(F)F)ccc2C(F)(F)F)C1 (stereo partly shown) [Example 9]	217

---

Measured EC50 accompanies every entry in the list below.
target: Human GPR40 (Homo sapiens (Human), UniProt O14842); test: Inositol Phosphate Turnover (IP1) Assay 1, HEK cells stably expressing human GPR40, 3H-inositol SPA; assay type: cell-based; details: HEK cells stably expressing human GPR40, 96-well
observation type: EC50

1) C[C@H](C(=O)O)[C@H](c1cccc(OCC2CN(Cc3cc(C(F)(F)F)ccc3C(F)(F)F)C2)c1)C1CC1	79 nM
2) C[C@H](C(=O)O)[C@H](c1cccc(OCC2CC(Oc3ccccc3-c3ccccc3)C2)c1)C1CC1 (stereo partly shown)	150 nM
3) COc1ccc(F)c(OC2CC(COc3cccc([C@H](C4CC4)[C@H](C)C(=O)O)c3)C2)c1 (stereo partly shown) [Example 81]	45 nM
4) O=C(O)C[C@H](c1cccc(OC2CC3(CCN(Cc4cc(C(F)(F)F)ccc4C(F)(F)F)C3)C2)c1)C1CC1 (single isomer, unassigned) [Example 5B]	2140 nM
5) CCOc1ccccc1OC1CC(COc2cccc([C@H](C3CC3)[C@H](C)C(=O)O)c2)C1 (stereo partly shown)	109 nM
6) O=C(O)C[C@H](c1cccc(OCCC2CN(Cc3cc(C(F)(F)F)ccc3C(F)(F)F)C2)c1)C1CC1	3710 nM
7) C[C@H](C(=O)O)[C@H](c1cccc(OCC2CC(Oc3cc(F)ccc3F)C2)c1)C1CC1 (stereo partly shown)	110 nM
8) COc1ccc(Cl)c([C@H]2C[C@@H]2COc2cccc([C@H](C3CC3)[C@H](C)C(=O)O)c2)c1	26 nM
9) CC(c1cc(C(F)(F)F)ccc1C1CC1)N1CC(COc2cccc([C@@H](CC(=O)O)C3CC3)c2)C1 (stereo partly shown)	366 nM
10) COc1ccc(OC2CC(COc3cccc([C@H](C4CC4)[C@H](C)C(=O)O)c3)C2)cc1 (stereo partly shown) [Example 125]	565 nM
11) COc1cc(OC2CC(COc3cccc([C@H](C4CC4)[C@H](C)C(=O)O)c3)C2)c(F)cn1 (stereo partly shown)	54 nM
12) O=C(O)C[C@H](c1cccc(OCC2CCN(c3cc(C(F)(F)F)ccc3C(F)(F)F)C2)c1)C1CC1 (stereo partly shown)	1850 nM
13) C[C@H](C(=O)O)[C@H](c1cccc(OC[C@H]2C[C@@H]2c2cc(OC(F)(F)F)ccc2Cl)c1)C1CC1	111 nM
14) O=C(O)C[C@H](c1cccc(OCC2(F)CN(Cc3cc(C(F)(F)F)ccc3C(F)(F)F)C2)c1)C1CC1	967 nM
15) Cc1ccc(C(F)(F)F)cc1C(C)N1CC(COc2cccc([C@@H](CC(=O)O)C3CC3)c2)C1 (stereo partly shown)	777 nM
16) COc1cccc(F)c1OC1CC(COc2cccc([C@H](C3CC3)[C@H](C)C(=O)O)c2)C1 (single isomer, unassigned) [Example 130]	139 nM
17) C[C@H](C(=O)O)[C@H](c1cccc(OCC2CC(Oc3ccn[nH]3)C2)c1)C1CC1 (single isomer, unassigned) [Example 99]	2670 nM
18) COc1cccc(C2CC2COc2cccc([C@@H](CC(=O)O)C3CC3)c2)c1 (single isomer, unassigned) [Example 63]	348 nM
19) CC(c1cc(Cl)ccc1Cl)N1CC(COc2cccc([C@@H](CC(=O)O)C3CC3)c2)C1 (stereo partly shown)	347 nM
20) Cc1ccc(F)c(OC2CC(COc3cccc([C@H](C4CC4)[C@H](C)C(=O)O)c3)C2)c1 (single isomer, unassigned) [Example 119]	98 nM
21) C[C@H](C(=O)O)[C@H](c1cccc(OCC2CC(Oc3ccccc3Cl)C2)c1)C1CC1 (single isomer, unassigned) [Example 134]	85 nM
22) COc1cccc(C2CC(COc3cccc([C@H](C4CC4)[C@H](C)C(=O)O)c3)C2)c1 (stereo partly shown)	35 nM
23) COc1ccc([C@H]2C[C@@H]2COc2cccc([C@H](C3CC3)[C@H](C)C(=O)O)c2)c(F)c1	544 nM
24) C[C@H](C(=O)O)[C@H](c1cccc(OCC2CC(Oc3ccc4c(c3)COC4=O)C2)c1)C1CC1 (single isomer, unassigned) [Example 108]	1970 nM
25) C[C@H](C(=O)O)[C@H](c1cccc(OC[C@H]2C[C@@H]2c2cc(OC(F)(F)F)ccc2F)c1)C1CC1	223 nM
26) C[C@H](C(=O)O)[C@H](c1cccc(OCC2CC(Oc3ccn[nH]3)C2)c1)C1CC1 (single isomer, unassigned) [Example 98]	1480 nM
27) O=C(O)C[C@H](c1cccc(OC2CCN(Cc3cc(C(F)(F)F)ccc3Cl)C2)c1)C1CC1 (stereo partly shown)	1120 nM
28) C[C@H](C(=O)O)[C@H](c1cccc(OC[C@H]2C[C@@H]2c2cc(C(F)(F)F)ccc2Cl)c1)C1CC1	175 nM

---

target: Human GPR40 (Homo sapiens (Human)); assay: Inositol Phosphate Turnover (IP1) Assay 1, HEK cells stably expressing human GPR40, 3H-inositol SPA; type: cell-based; conditions: HEK cells stably expressing human GPR40, 96-well
Measured EC50 accompanies every entry in the list below.
observation type: EC50 (nM)

1. COc1cccc(C2CC2COc2cccc([C@H](C3CC3)[C@H](C)C(=O)O)c2)c1 (stereo partly drawn) [Example 69]	166
2. COc1ccc(OC2CC(COc3cccc([C@H](C4CC4)[C@H](C)C(=O)O)c3)C2)cc1 (stereo partly drawn) [Example 124]	577
3. COc1cc(OC2CC(COc3cccc([C@H](C4CC4)[C@H](C)C(=O)O)c3)C2)ccn1 (stereo partly drawn)	181

---

Measured EC50 accompanies every entry in the list below.
molecular target: Human GPR40 (Homo sapiens (Human)); test: Inositol Phosphate Turnover (IP1) Assay 1, HEK cells stably expressing human GPR40, 3H-inositol SPA; format: cell-based; conditions: HEK cells stably expressing human GPR40, 96-well
observation type: EC50 (nM)

1. COc1cc(F)c([C@H]2C[C@@H]2COc2cccc([C@H](C3CC3)[C@H](C)C(=O)O)c2)cc1F [Example 153]	325
2. C[C@H](C(=O)O)[C@H](c1cccc(OCC2CCN(c3ncccc3C(F)(F)F)CC2)c1)C1CC1 [Example 38]	13
3. C[C@H](C(=O)O)[C@H](c1cccc(OC[C@H]2C[C@@H]2c2cc(Cl)ccc2F)c1)C1CC1 [Example 152]	89

---

target: Human GPR40 (Homo sapiens (Human), UniProt O14842); test: FLIPR assay, agonist-induced calcium mobilization in GPR40/CHO NFAT BLA cells; type: cell-based
pEC50: −log10 of the molar value.
Entries are sorted into classes by pEC50 as follows: Low: < 7; Medium: ≥ 7 and < 8; High: ≥ 8

1. CC1(COc2cccc([C@@H](CC(=O)O)C3CC3)c2)CCN(Cc2cc(C(F)(F)F)ccc2C(F)(F)F)C1 (stereo partly drawn) [Example 43]	Low
2. C[C@H](C(=O)O)[C@H](c1cccc(O[C@H]2CCCN(Cc3cc(C(F)(F)F)ccc3C(F)(F)F)C2)c1)C1CC1 [Example 1]	High
3. C[C@H](C(=O)O)[C@H](c1cccc(OC[C@H]2CCN(Cc3cc(C(F)(F)F)ccc3C(F)(F)F)C2)c1)C1CC1 [Example 33]	High
4. C[C@H](C(=O)O)[C@H](c1cccc(OC[C@@H]2CCN(Cc3cc(C(F)(F)F)ccc3C(F)(F)F)C2)c1)C1CC1 [Example 26]	High
5. CC(c1cc(C(F)(F)F)ccc1C(F)(F)F)N1CC(COc2cccc([C@H](C3CC3)[C@H](C)C(=O)O)c2)C1 (stereo partly drawn) [Example 27]	High
6. CC(c1cc(F)ccc1Cl)N1CC(COc2cccc([C@@H](CC(=O)O)C3CC3)c2)C1 (stereo partly drawn) [Example 51]	Medium
7. O=C(O)C[C@H](c1cccc(OC2CC3(CCN(Cc4cc(C(F)(F)F)ccc4C(F)(F)F)C3)C2)c1)C1CC1 (single isomer, unassigned) [Example 5A]	Low
8. C[C@H](C(=O)O)[C@H](c1cccc(OCC2CN(c3cccc(C(F)(F)F)n3)C2)c1)C1CC1 [Example 30]	Medium
9. COc1cccc(C2CC2COc2cccc([C@@H](CC(=O)O)C3CC3)c2)c1 (single isomer, unassigned) [Example 62]	High
10. C[C@H](C(=O)O)[C@H](c1cccc(O[C@H]2CCCN(Cc3cc(C(F)(F)F)ccc3C(F)(F)F)C2)c1)C1CC1 [Example 29]	Medium
11. CC(c1cc(C(F)(F)F)ccc1Cl)N1CC(COc2cccc([C@@H](CC(=O)O)C3CC3)c2)C1 (stereo partly drawn) [Example 60]	Low
12. C[C@H](C(=O)O)[C@H](c1cccc(O[C@@H]2CCCN(Cc3cc(C(F)(F)F)ccc3C(F)(F)F)C2)c1)C1CC1 [Example 7]	High
